# assayed-target: ChT-L site of the proteasome
# test-description: Binding affinity to the ChT-L site of the proteasome
# experimental-conditions: read-out: IC50, ChT-L site of the proteasome; proteasome source not stated
value-kind: pIC50
Schema: pIC50 number; meaning minus log10 of the concentration expressed in molar units.

Consider the compound CC(C)CC(NC(=O)C(CCS(C)(=O)=O)NC(=O)C(NC(=O)CCCCCN)C(C)C)C(=O)C1(C)CO1 (stereo not shown) and give its recorded pIC50.
6.27

---

# Tested on: HCT116 cells
# test-description: Cytotoxicity to HCT116 colon adenocarcinoma cell line
# Assay type: cell-based
# experimental-conditions: read-out: HCT116 IC50; Table 2; HCT116 cell line
value-kind: IC50 (µM)
Report the value in µM with no unit label.

Consider the molecule CCCCCC(=O)NC(C(=O)NC(CCSC)C(=O)NC(CC(C)C)C(=O)C1(C)CO1)C(C)C (stereo not shown) [Analogue 21] and give its recorded IC50.
0.022

---

Quick list: pIC50 per entry.
# assayed-target: human 20S proteasome T-L site (Homo sapiens, UniProt P49720+Q99436)
# test-description: Proteasome inhibition assay, trypsin-like site, fluorogenic substrate
Schema: pIC50 number; meaning minus log10 of the concentration expressed in molar units.

Consider the compound `CCCCCC(=O)N[C@H](C(=O)N[C@@H](CCS(=O)(=O)c1ccc(N)cc1)C(=O)N[C@@H](CC(C)C)C(=O)[C@@]1(C)CO1)C(C)C` and give its recorded pIC50.
7.85

Consider the compound `CCCCCC(=O)N[C@H](C(=O)N[C@@H](CCC(=O)N[C@@H](CC(C)C)C(=O)[C@@]1(C)CO1)C(=O)N[C@@H](CC(C)C)C(=O)[C@@]1(C)CO1)C(C)C` and give its recorded pIC50.
7.01

Consider the compound `CC(C)C[C@H](NC(=O)CC[C@H](NC(=O)[C@@H](NC(=O)Cc1ccc(N)cc1)C(C)C)C(=O)N[C@@H](CC(C)C)C(=O)[C@@]1(C)CO1)C(=O)[C@@]1(C)CO1` and give its recorded pIC50.
7.15

Consider the compound `CCCCCC(=O)N[C@@H](Cc1ccc(N)cc1)C(=O)N[C@@H](CCC(=O)N[C@@H](CC(C)C)C(=O)[C@@]1(C)CO1)C(=O)N[C@@H](CC(C)C)C(=O)[C@@]1(C)CO1` and give its recorded pIC50.
6.50

---

# System: NCI-H460 cells
# test-description: Cytotoxicity assay to NCI-H460 human lung carcinoma cells
# Assay type: cell-based
# experimental-conditions: read-out: NCI-H460 IC50; Table 1; NCI-H460 cell line
value-kind: pIC50
Schema: pIC50 number; meaning minus log10 of the concentration expressed in molar units.

CCCCCC(=O)N[C@H](C(=O)N[C@@H](CCS(C)(=O)=O)C(=O)N[C@@H](CC(C)C)C(=O)[C@@]1(C)CO1)C(C)C [carmaphycin B, reference compound]; 8.22

Consider the molecule CC(C)CC(NC(=O)C(CCS(C)(=O)=O)NC(=O)C(NC(=O)CCCCCN)C(C)C)C(=O)C1(C)CO1 (centres unmarked) [Analogue 6] and give its recorded pIC50.
6.07

---

# Test system: NCI-H460 cells
# test-description: Cytotoxicity assay to NCI-H460 human lung carcinoma cells
# Format: cell-based
# experimental-conditions: read-out: NCI-H460 IC50; Table 2; NCI-H460 cell line
value-kind: IC50 (nM)
Report the value in nM with no unit label.

Consider the molecule CCCCCC(=O)NC(C(=O)NC(CCSC)C(=O)NC(CC(C)C)C(=O)C1(C)CO1)C(C)C (stereo not shown) and give its recorded IC50.
27

Where do the numbers come from? From paper PMC6248884.
